# Tested on: LOC_OS01G57100-cb003
# EXPERIMENTAL_DETAILS: thermal shift delta Tm vs DMSO control; higher = stronger stabilization (binding);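 also: purified Escherichia coli-expressed rice kinase domain construct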
# CONDITION_NOTES: 12.5 µM; protein concentration 2 µM
Decide using thermal shift delta Tm: a value greater than or equal to 1 °C is 1 (yes), a smaller one is 0 (no).

Cc1cn(-c2cc(NC(=O)c3ccc(C)c(Nc4nccc(-c5cccnc5)n4)c3)cc(C(F)(F)F)c2)cn1 [Nilotinib (AMN-107)]    0 (no)
Cc1cc(Nc2nc(N[C@@H](C)c3ccc(F)cc3)c(C#N)cc2F)n[nH]1    0 (no)
CNS(=O)(=O)Nc1nccc(Cc2c(C)c3ccc(Oc4ncccn4)cc3oc2=O)c1F    1 (yes)
CO[C@H]1C[C@@H]2CC[C@@H](C)[C@@](O)(O2)C(=O)C(=O)N2CCCC[C@H]2C(=O)O[C@H]([C@H](C)C[C@@H]2CC[C@@H](O)[C@H](OC)C2)CC(=O)[C@H](C)/C=C(\C)[C@@H](O)[C@@H](OC)C(=O)[C@H](C)C[C@H](C)/C=C/C=C/C=C/1C [Rapamycin (Sirolimus)]    1 (yes)
COc1cc(N2CCC(N3CCN(C)CC3)CC2)ccc1Nc1ncnc(Nc2ccccc2S(=O)(=O)C(C)C)n1    1 (yes)
O=C1c2c(O)cc(O)cc2OC(c2ccc(O)c(O)c2)C1O (configuration not stated) [Taxifolin (Dihydroquercetin)]    1 (yes)

* * *

# System: LOC_OS02G07810-cb001
# EXPERIMENTAL_DETAILS: thermal shift delta Tm vs DMSO control; higher = stronger stabilization (binding)
# CONDITION_NOTES: 12.5 µM; protein concentration 2 µM
MEASUREMENT_NAME: thermal shift delta Tm (°C)

Cc1c(Cn2c(C)nc3c(C(=O)O)cc(N4CCOCC4)cc32)cccc1C(F)(F)F    0.73
CC(C)(C)NC(=O)c1cncn1C1CCN(c2ccc(-c3nnc(C(F)(F)F)o3)cn2)CC1    -1.16
CCN(CC)CCNC(=O)c1c(C)[nH]c(/C=C2\C(=O)Nc3ccc(F)cc32)c1C [Sunitinib Malate]    -0.25
COc1cc2ncnc(Nc3ccc(O)c(Br)c3)c2cc1OC    0.81
FC(F)(F)c1ccc(Nc2nc3ccc(Oc4ccnc(-c5ncc(C(F)(F)F)[nH]5)c4)cc3[nH]2)cc1    2.01
C[C@H](Nc1ncnc2[nH]cnc12)c1cc2ccc(F)cc2nc1-c1ccccn1    0.74
Cc1ncc(-c2ccnc(Nc3ccc(S(C)(=O)=O)cc3)n2)n1C(C)C    1.42
O=C(O)c1ccc2c3c1cccc3c(=O)n1c3ccccc3nc21    0.5
CCc1cccc(CC)c1NC(=O)N1Cc2[nH]nc(NC(=O)c3ccc(N4CCN(C)CC4)cc3)c2C1    0.66

* * *

# Test system: LOC_OS01G60330-cb001
# EXPERIMENTAL_DETAILS: thermal shift delta Tm vs DMSO control; higher = stronger stabilization (binding)
# CONDITION_NOTES: 12.5 µM; protein concentration 2 µM
Where a name gives a salt, the structure may show the parent alone.
Values of thermal shift delta Tm greater than or equal to 0.8 °C map to class 1; values below map to class 0.

CS(=O)(=O)N1CCN(Cc2cc3nc(-c4cccc5[nH]ncc45)nc(N4CCOCC4)c3s2)CC1 [Pictilisib (GDC-0941)]    class 1
Cc1ccc(NC(=O)c2cccc(N(C)C)c2)cc1NC(=O)c1ccc(O)cc1    class 1
N#C/C(=C\c1ccc(O)c(O)c1)C(=O)NCc1ccccc1 [AG-490 (Tyrphostin B42)]    class 0
Cc1c(Cn2c(C)nc3c(C(=O)O)cc(N4CCOCC4)cc32)cccc1C(F)(F)F    class 1
Cc1nc(Nc2ncc(C(=O)Nc3c(C)cccc3Cl)s2)cc(N2CCN(CCO)CC2)n1 [Dasatinib]    class 0
COc1ccc(COc2cc3oc(=O)c4cc(C(C)O)ccc4c3cc2OC)cc1 (centres undefined) [Palomid 529 (P529)]    class 1
CCc1nc(-c2cccc(C)c2)c(-c2ccnc(NC(=O)c3ccccc3)c2)s1    class 1
CC(C)n1ncnc1-c1cn2c(n1)-c1ccc(O[C@@H](C)C(N)=O)cc1OCC2    class 1
COc1cc2nccc(Oc3ccc(NC(=O)NC4CC4)c(Cl)c3)c2cc1C(N)=O [Lenvatinib (E7080)]    class 1
CCn1nc(C2CCN(C(=O)CCO)CC2)nc1-c1cnc(N)c(-c2nnc(C(C)(C)C)o2)n1    class 1
CCN(CC)CCNC(=O)c1c(C)[nH]c(/C=C2\C(=O)Nc3ccc(F)cc32)c1C [Sunitinib Malate]    class 1
CCCCCCCCCCCCCCCCCCOP(=O)([O-])OC1CC[N+](C)(C)CC1 [Perifosine (KRX-0401)]    class 0
CCc1cnn2c(NCc3ccc[n+]([O-])c3)cc(N3CCCC[C@H]3CCO)nc12    class 1
CCS(=O)(=O)Nc1ccc2c(c1)/C(=C(/Nc1ccc(CN3CCCCC3)cc1)c1ccccc1)C(=O)N2 [Hesperadin]    class 1
O=C1Nc2ccc(CN3C(=O)CSC3=O)cc2/C1=C/c1cc(CN2CCOCC2)c[nH]1    class 0
OCCn1cc(-c2cnc3nnn(Cc4ccc5ncccc5c4)c3n2)cn1    class 0
C[S+]([O-])c1ccc(-c2nc(-c3ccc(F)cc3)c(-c3ccncc3)[nH]2)cc1 (centres undefined)    class 1
CNC(=O)c1cc(Oc2ccc(NC(=O)Nc3ccc(Cl)c(C(F)(F)F)c3)cc2)ccn1 [Sorafenib]    class 1
O=C(NOCCO)c1ccc2cncn2c1Nc1ccc(I)cc1F    class 0
CC(C)NC[C@@H](C(=O)N1CCN(c2ncnc3c2[C@H](C)C[C@H]3O)CC1)c1ccc(Cl)cc1 [Ipatasertib (GDC-0068)]    class 1
Cc1cccc(CC(=O)N2CCc3c2ccc(-c2cn(C)c4ncnc(N)c24)c3F)n1    class 0
Nc1nc(N)c(N=O)c(OCC2CCCCC2)n1    class 1
Cc1cc(Nc2ncnc3ccc(-c4ccc(CNCCS(C)(=O)=O)o4)cc23)ccc1Oc1ccn2ncnc2c1 [HER2-Inhibitor-1]    class 1
CN1CCN(c2ccc3nc(-c4c(N)c5c(F)cccc5[nH]c4=O)[nH]c3c2)CC1 [Dovitinib (TKI-258) Dilactic Acid]    class 1
COc1ccc(/C=C/C(=O)C2(C(=O)/C=C/c3ccc(OC)c(OC)c3)CCCCC2)cc1OC    class 0
CC[C@H](CO)Nc1nc(NCc2ccccc2)c2ncn(C(C)C)c2n1 [Roscovitine (Seliciclib,CYC202)]    class 1
COc1nccnc1NS(=O)(=O)c1ccc(NC(=O)/C=C/c2ccc([N+](=O)[O-])s2)cc1 [Necrosulfonamide]    class 1
Nc1ncccc1-c1nc2ccc(-c3ccccc3)nc2n1-c1ccc(C2(N)CCC2)cc1 [Miransertib (ARQ 092) HCl]    class 0
C=CC(=O)Nc1cccc(Oc2nc(Nc3ccc(N4CCN(C)CC4)cc3)nc3ccsc23)c1    class 1
O=C(Nc1ccc(-c2ccnc(Nc3ccc(N4CCOCC4)cc3)n2)cc1)C1CCCN1 (centres undefined)    class 0
Cc1c(C(=O)N2CCOc3ccc(-c4ccc(N)nc4)cc3C2)ccc(S(C)(=O)=O)c1F    class 0
COc1ccc(Cl)c(Nc2nc3ccccc3nc2NS(=O)(=O)c2cccc(NC(=O)C(C)(C)N)c2)c1 [Pilaralisib (XL147)]    class 1
C=CC(=O)N1CCN(CCCn2c(=O)c(-c3c(Cl)c(OC)cc(OC)c3Cl)cc3cnc(NC)nc32)CC1    class 0
